Recorded values, source ChEMBL document CHEMBL1201862.

tested on: MOLT-4; test: NCI tumour cell line growth inhibition, 48 h
Activity calls are given as the source filed them. Rule as the data show it: active = GI50 up to about 1.1 µM and inactive = higher.
Allowed answers: class 1 (active), class 0 (inactive)

Request: Can you look up the reported call for Cc1ccc(C2=Nc3cc(C)c(Cl)cc3S(=O)(=O)NN2)cc1 for me?
Result: class 0

Request: Can you look up the reported call for O=C(CNc1ccc2c(=S)c3ccccc3[nH]c2c1)Nc1ccccc1-c1ccccc1NC(=O)CNc1ccc2c(=S)c3ccccc3[nH]c2c1 for me?
Result: class 0

---

system: KM12; assay: NCI tumour cell line growth inhibition, 48 h
Calls of active or inactive are those of the source. No stated cut-off is given here; in the data, active = GI50 up to about 1.1 µM and inactive = higher.
READOUT: GI50

INSERT INTO assay_data (compound, measured_target, observed_result) VALUES
  ('COc1cc(OC)c(-c2ccc(OCc3ccccc3)c3c(OC)cc(C)cc23)c2c1C(C)=N[C@H](C)C2', 'KM12', '2.09 µM (inactive)'),
  ('N/N=C(\C(=O)Nc1c(Cl)cc([N+](=O)[O-])cc1Cl)C(c1cnc2ccc([N+](=O)[O-])cc2n1)[N+](=O)[O-] (configuration not stated)', 'KM12', '50.1 µM (inactive)'),
  ('COC(=O)C(Cc1ccc(N(C)C)cc1)(NC(=O)c1ccccc1)P(=O)(OC)OC (configuration not stated)', 'KM12', '> 100 µM (inactive)');

Attention now shifts to the item below.
Request: Please indicate recorded GI50 of FC(F)(F)C1(C(F)(F)F)O[Si]2(OC(C(F)(F)F)(C(F)(F)F)c3ccccc32)c2ccccc21 measured with KM12.
Result: 17.1 µM (inactive)
